Assay overview: activity coefficient (dimensionless); of the first substance listed, at infinite dilution; xn = mol fraction of the nth substance listed
Cond: 358.15 K; 101.33 kPa; Liquid; Chromatography; x1 = 0
Kind request: treat 2 as inclusive, so activity coefficient at 2 or higher is YES, anything lower is NO.

[[record]]
molecule = "CC(C)(C)O [2-methylpropan-2-ol] + CCCC[P+](CCCC)(CCCC)CCCC.O=S(=O)([N-]S(=O)(=O)C(F)(F)F)C(F)(F)F"
assigned_label = "NO"


Determine whether measured activity coefficient meets or exceeds 2 for Cc1cccc(C)c1 [1,3-dimethylbenzene] + CCCC[P+](CCCC)(CCCC)CCCC.O=S(=O)([N-]S(=O)(=O)C(F)(F)F)C(F)(F)F
NO

Evaluate CCC(C)CC [3-methylpentane] + CCCC[P+](CCCC)(CCCC)CCCC.O=S(=O)([N-]S(=O)(=O)C(F)(F)F)C(F)(F)F : activity coefficient at minimum 2?
YES

Is the recorded value of activity coefficient equal to or greater than 2 for this molecule? CO [methanol] + CCCC[P+](CCCC)(CCCC)CCCC.O=S(=O)([N-]S(=O)(=O)C(F)(F)F)C(F)(F)F
NO

Item CCCCCO [pentan-1-ol] + CCCC[P+](CCCC)(CCCC)CCCC.O=S(=O)([N-]S(=O)(=O)C(F)(F)F)C(F)(F)F with activity coefficient of 2 or above?
NO

* * *

Assay overview: activity coefficient (dimensionless); of the first substance listed, at infinite dilution; xn = mol fraction of the nth substance listed
Cond: 408.15 K; 101.33 kPa; Liquid; Chromatography; x1 = 0
Mark TRUE only for activity coefficient values smaller than 2; exact matches and larger values are FALSE.

[[record]]
compound = "CCC(=O)OC [methyl propanoate] + CCCC[P+](CCCC)(CCCC)CCCC.O=S(=O)([N-]S(=O)(=O)C(F)(F)F)C(F)(F)F"
assigned_label = "TRUE"

[[record]]
compound = "C=C(C)c1ccccc1 [(1-methylethenyl)benzene] + CCCC[P+](CCCC)(CCCC)CCCC.O=S(=O)([N-]S(=O)(=O)C(F)(F)F)C(F)(F)F"
assigned_label = "TRUE"

[[record]]
compound = "C1CCCCC1 [cyclohexane] + CCCC[P+](CCCC)(CCCC)CCCC.O=S(=O)([N-]S(=O)(=O)C(F)(F)F)C(F)(F)F"
assigned_label = "FALSE"

[[record]]
compound = "CCCC(C)=O [pentan-2-one] + CCCC[P+](CCCC)(CCCC)CCCC.O=S(=O)([N-]S(=O)(=O)C(F)(F)F)C(F)(F)F"
assigned_label = "TRUE"

[[record]]
compound = "Cc1ccccc1C [1,2-dimethylbenzene] + CCCC[P+](CCCC)(CCCC)CCCC.O=S(=O)([N-]S(=O)(=O)C(F)(F)F)C(F)(F)F"
assigned_label = "TRUE"


With those in mind, consider the next compound.
Consider COC(C)=O [methyl ethanoate] + CCCC[P+](CCCC)(CCCC)CCCC.O=S(=O)([N-]S(=O)(=O)C(F)(F)F)C(F)(F)F . Does its activity coefficient lie strictly below 2?
TRUE

* * *

This section presents compounds with their documented activity coefficient values.
Assay overview: activity coefficient (dimensionless); of the first substance listed, at infinite dilution; xn = mol fraction of the nth substance listed
Cond: 358.15 K; 101.33 kPa; Liquid; Chromatography; x1 = 0
Output spec: single numeric token, no unit.

Reference set (3 entries):
[[record]]
compound = "CCCOCCC [dipropyl ether] + CCCC[P+](CCCC)(CCCC)CCCC.O=S(=O)([N-]S(=O)(=O)C(F)(F)F)C(F)(F)F"
value_kind = "activity coefficient"
measured_value = 2.73

[[record]]
compound = "C1=CCCCC1 [cyclohexene] + CCCC[P+](CCCC)(CCCC)CCCC.O=S(=O)([N-]S(=O)(=O)C(F)(F)F)C(F)(F)F"
value_kind = "activity coefficient"
measured_value = 2.24

[[record]]
compound = "c1ccccc1 [benzene] + CCCC[P+](CCCC)(CCCC)CCCC.O=S(=O)([N-]S(=O)(=O)C(F)(F)F)C(F)(F)F"
value_kind = "activity coefficient"
measured_value = 0.836


State the recorded activity coefficient for this entry: CC(C)O [propan-2-ol] + CCCC[P+](CCCC)(CCCC)CCCC.O=S(=O)([N-]S(=O)(=O)C(F)(F)F)C(F)(F)F
1.47

I'd like to know its activity coefficient. The compound in question is COC(C)=O [methyl ethanoate] + CCCC[P+](CCCC)(CCCC)CCCC.O=S(=O)([N-]S(=O)(=O)C(F)(F)F)C(F)(F)F
0.753

Fill in: activity coefficient of CC(C)CC(C)(C)C [2,2,4-trimethylpentane] + CCCC[P+](CCCC)(CCCC)CCCC.O=S(=O)([N-]S(=O)(=O)C(F)(F)F)C(F)(F)F is ___
5.43
